molecular target: NAMPT (Homo sapiens); construct: His tag; host or cells: E. coli; test: Biochemical inhibition assay: NAMPT enzymatic reaction, NMN quantified by mass spectrometry; conditions: NAMPT enzymatic assay; read-out: Biochem IC50
REPORTED METRIC: pIC50
Give bare numbers, as −log10 of the molar value.

For every record below, what is its pIC50?
1. O=C(NCc1ccc(S(=O)(=O)c2ccc3nc(C(F)(F)F)cn3c2)cc1)c1cnc2[nH]ncc2c1
2. O=C(NCc1ccc(S(=O)(=O)c2cncc3ccccc23)cc1)c1cc2cnccc2[nH]1
3. O=C(NCc1ccc(S(=O)(=O)c2ccc3ncccc3c2)cc1)c1cnc2[nH]ncc2c1
4. O=C(NCc1ccc(S(=O)(=O)c2ccc(N3CCOCC3)cc2)cc1)c1cc2ccncc2s1
5. O=C(NCc1ccc(S(=O)(=O)c2cccc(-c3ccc(F)c(F)c3)n2)cc1)c1cc2ccncc2o1

[7.30, 7.96, 8.00, 8.80, 8.30]

---

Kindly state log10(IC50) for each of the entries shown.
molecular target: NAMPT (Homo sapiens, UniProt P43490); construct: His tag; host or cells: E. coli; test: Biochemical inhibition assay: NAMPT enzymatic reaction, NMN quantified by mass spectrometry; conditions: NAMPT enzymatic reaction; read-out: Biochem IC50
Sequence (P43490 whole entry): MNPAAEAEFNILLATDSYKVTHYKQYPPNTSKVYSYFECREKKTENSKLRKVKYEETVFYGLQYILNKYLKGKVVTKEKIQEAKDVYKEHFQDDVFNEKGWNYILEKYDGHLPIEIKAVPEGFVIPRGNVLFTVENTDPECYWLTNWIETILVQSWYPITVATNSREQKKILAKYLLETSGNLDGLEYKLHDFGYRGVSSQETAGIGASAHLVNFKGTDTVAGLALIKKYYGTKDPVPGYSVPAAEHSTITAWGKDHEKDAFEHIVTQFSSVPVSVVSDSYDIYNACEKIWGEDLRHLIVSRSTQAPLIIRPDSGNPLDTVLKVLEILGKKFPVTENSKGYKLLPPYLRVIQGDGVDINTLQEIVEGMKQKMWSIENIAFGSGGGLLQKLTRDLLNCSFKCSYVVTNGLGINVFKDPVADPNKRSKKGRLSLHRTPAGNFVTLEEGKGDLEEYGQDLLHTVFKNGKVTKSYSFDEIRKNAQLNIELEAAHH
In plain terms, each number is the log10 of measured IC50 in nM.

CS(=O)(=O)c1cccc(S(=O)(=O)c2ccc(CNC(=O)c3ccc4nccn4c3)cc2)c1 | 1.41
CCCCOc1ccc(Cl)cc1S(=O)(=O)c1ccc(CNC(=O)c2cnc3[nH]ncc3c2)cc1 | 2.07
O=C(NCc1ccc(S(=O)(=O)c2ccc(C3CCCCC3)cc2)cc1)c1cc2ccncc2s1 | 0.53
CCCOc1cccc(S(=O)(=O)c2ccc(CNC(=O)c3cnc4nccn4c3)cc2)c1 | 0.68
Cc1cc(Cl)ccc1S(=O)(=O)c1ccc(CNC(=O)c2cnc3[nH]ncc3c2)cc1 | 1.89
COc1ccc(S(=O)(=O)c2ccc(CNC(=O)c3cnc4[nH]ncc4c3)cc2)c(C)c1 | 1.46

I need log10(IC50) for every entry listed below, if you could help.
1. Cc1cc(S(=O)(=O)c2ccc(CNC(=O)c3ccc4nccn4c3)cc2)c(C)cc1F
2. O=C(NCc1ccc(S(=O)(=O)c2cccc(OC(F)(F)F)c2)cc1)c1cc2ccncc2s1
3. CS(=O)(=O)Nc1ccccc1S(=O)(=O)c1ccc(CNC(=O)c2cc3cnccc3[nH]2)cc1
4. Cc1ccc(F)cc1S(=O)(=O)c1ccc(CNC(=O)c2cc3ccncc3o2)cc1

1: 1.64; 2: 0.30; 3: 2.45; 4: 1.16

Please give log10(IC50), item by item, for the list that follows.
1. CC(C)Oc1ccccc1NS(=O)(=O)c1ccc(CNC(=O)c2cc3cnccc3[nH]2)cc1
2. CCCOc1ccc(Cl)cc1S(=O)(=O)c1ccc(CNC(=O)c2cc3ccncc3s2)cc1
3. COc1cc(F)c(F)cc1S(=O)(=O)c1ccc(CNC(=O)c2cc3ccncc3s2)cc1
4. CCc1ccc(S(=O)(=O)c2ccc(CNC(=O)c3cc4ccncc4s3)cc2)cc1

1. 0.48
2. 0.76
3. 0.70
4. 0.78

---

biological target: NAMPT (Homo sapiens); construct: His tag; host or cells: E. coli; test: Biochemical inhibition assay: NAMPT enzymatic reaction, NMN quantified by mass spectrometry; settings: NAMPT enzymatic assay; read-out: Biochem IC50
REPORTED METRIC: log10 IC50 (log10 of the value in nM)
Recall that a logarithmic scale is used here: each number is log10 of IC50 in nM.

// worked examples, log10 IC50 included
O=C(NCc1ccc(S(=O)(=O)c2cncc(N3CCCC3)c2)cc1)c1ccc2nccn2c1 | 0.60
O=C(NCc1ccc(S(=O)(=O)c2cccc(OCC(F)(F)F)c2)cc1)c1ccc2nccn2c1 | 1.18
CCNC(=O)c1cccc(S(=O)(=O)c2ccc(CNC(=O)c3cnc4nccn4c3)cc2)c1 | 0.49
CCC[C@@H](O)c1ccc(S(=O)(=O)c2ccc(CNC(=O)c3cc4ccncc4o3)cc2)cc1 | 1.45
CN(C)S(=O)(=O)c1cccc(S(=O)(=O)c2ccc(CNC(=O)c3cc4ccncc4o3)cc2)c1 | 0.30
O=C(NCc1ccc(S(=O)(=O)c2cc(Cl)cc(CO)c2)cc1)c1ccc2nccn2c1 | 0.76
Cn1ncc2c(S(=O)(=O)c3ccc(CNC(=O)c4ccc5nccn5c4)cc3)cccc21 | 1.10
CCN(CC)C(=O)c1cc(F)cc(S(=O)(=O)c2ccc(CNC(=O)c3cnc4nccn4c3)cc2)c1 | 0.67

Required: log10 IC50, one value per molecule below.
1. Cc1cc(Cl)cnc1S(=O)(=O)c1ccc(CNC(=O)c2cnc3[nH]ncc3c2)cc1
2. CC(C)NC(=O)c1cc(S(=O)(=O)c2ccc(CNC(=O)c3cnc4[nH]ncc4c3)cc2)ccc1F
3. O=C(NCc1ccc(S(=O)(=O)c2cccc3c2sc2ccccc23)cc1)c1cc2ccncc2s1
4. O=C(NCc1ccc(S(=O)(=O)c2cccc3c2OCC3)cc1)c1ccc2nccn2c1

1.80
1.93
0.15
1.10

Each molecule below has a recorded value; state its log10 IC50.
1. CCOCc1ccc(S(=O)(=O)c2ccc(CNC(=O)c3cnc4nccn4c3)cc2)cc1
2. CN(C)c1ncc(S(=O)(=O)c2ccc(CNC(=O)c3cc4cnccc4[nH]3)cc2)cn1
3. O=C(NCc1ccc(S(=O)(=O)c2nccs2)cc1)c1ccc2nccn2c1
4. CCOCc1ccc(S(=O)(=O)c2ccc(CNC(=O)c3cnc4[nH]ncc4c3)cc2)cc1
5. O=C(NCc1ccc(S(=O)(=O)c2cccc(OCC(F)(F)F)c2)cc1)c1cnc2nccn2c1

0.43
1.28
1.32
1.42
0.74

Hi team, please reply with log10 IC50 for each item in this list.
1. O=C(NCc1ccc(S(=O)(=O)c2ccc(OC(F)(F)F)cc2)cc1)c1cnc2[nH]ncc2c1
2. O=C(NCc1ccc2ncsc2c1)c1ccc(S(=O)(=O)c2cccc(Cl)c2)cc1

[1.54, 1.00]

Hello, the source for this data is patent US12336981B2, in case you need it.
